# System: HeLa cells
# PROCEDURE_DETAILS: Cell cycle assay in HeLa cells
# Type: cell-based, human
# TEST_SETTINGS: HeLa cells, 150 nM oligomeric compound, 48 hours after treatment; relative to untreated control (UTC=100)
In the oligonucleotide strings, read from the 5' end, every base follows the letter of its sugar. An asterisk marks phosphorothioate; unmarked linkages are phosphodiester. Other units and linkages are bracketed, terminal groups are in braces. A string of capitals states the bases alone. e = 2'-O-(2-methoxyethyl) (MOE); [5mC] = 5-methylcytosine; d = 2'-deoxy (DNA)
ATTRIBUTE_MEASURED: % cells in cell cycle phase: S (%)
Reply with just the number (in %).

Inquiry: Entry under review: 338809 (antisense CTGCTCCAGAGCCCGAGTCG; all 2'-MOE, all phosphorothioate, methylation of C not given here) [compound 338809] . Reported % cells in cell cycle phase: S?
Reply text: 110

Inquiry: Quick one: % cells in cell cycle phase: S of 328421 (antisense eG*e[5mC]*eT*eT*eA*dG*d[5mC]*dT*dG*dT*dG*dT*d[5mC]*dT*dT*eA*e[5mC]*eA*eG*e[5mC]) [compound 328421] ?
Reply text: 202

Inquiry: Any idea what its % cells in cell cycle phase: S is? The substance is 327919 (antisense eG*eA*eA*eA*e[5mC]*e[5mC]*e[5mC]*eA*eG*e[5mC]*eA*eG*eA*e[5mC]*eA*eA*eT*eG*eT*eA*eG*e[5mC]*eT) [compound 327919]
Reply text: 122

Hello, the source for this data is patent US8178506B2, in case you need it.
